Each record here notes measured pIC50.
# assayedSystem: CCRF-CEM DHFR (Homo sapiens, UniProt P00374)
# Construct: DHFR isolated from human CCRF-CEM leukemic cells; endogenous in cells; host or cells: CCRF-CEM human leukemic cells
# Sequence (P00374 whole entry): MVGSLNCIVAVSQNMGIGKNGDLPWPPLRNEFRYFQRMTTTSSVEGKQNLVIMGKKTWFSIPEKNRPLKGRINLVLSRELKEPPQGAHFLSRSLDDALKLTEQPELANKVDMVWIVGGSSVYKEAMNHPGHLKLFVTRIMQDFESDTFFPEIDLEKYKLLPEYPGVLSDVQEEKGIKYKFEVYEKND
# assay: Inhibition of DHFR isolated from human CCRF-CEM leukemic cells
# Assay type: biochemical
# recordedConditions: Table 17
Please express pIC50 as -log10 of the molar concentration.

[Q] # lookup: pIC50 of Nc1nc(N)c2c(CNCc3ccc(C(=O)N[C@@H](CCC(=O)O)C(=O)O)cc3)coc2n1 [Compound 34]
[A] 4.52

[Q] Ok, now Nc1nc(N)c2c(CCc3ccc(C(=O)N[C@@H](CCC(=O)O)C(=O)O)cc3)coc2n1 [Compound 33]
[A] 6.60

====

# assayedSystem: UniProtKB P16184
# assay: biochemical
# recordedConditions: Table 25; read-out: Inhibitor Concentrations (IC50) pcDHFR
pIC50 by entry:
Please note pIC50 is a logarithmic value: minus log10 of concentration in mol/L. Answer with that number alone.

CN(Cc1coc2nc(N)nc(N)c12)c1ccc(Cl)c(Cl)c1 | 4.35
CN(Cc1coc2nc(N)nc(N)c12)c1cc(Cl)c(Cl)c(Cl)c1 | 3.55
Nc1nc(N)c2c(CNc3cc(Cl)ccc3Cl)coc2n1 | 4.29

Turning now to a further record.
[Q] Recorded pIC50 of Nc1nc(N)c2c(CNc3cccc4ccccc34)coc2n1 , please.
[A] 4.87

====

# assayedSystem: RL DHFR (Rattus norvegicus)
# Construct: Toxoplasmosis gondii (Tg) and rat liver (RL); from tissue; host or cells: rat liver
# Sequence (Q920D2 1-187): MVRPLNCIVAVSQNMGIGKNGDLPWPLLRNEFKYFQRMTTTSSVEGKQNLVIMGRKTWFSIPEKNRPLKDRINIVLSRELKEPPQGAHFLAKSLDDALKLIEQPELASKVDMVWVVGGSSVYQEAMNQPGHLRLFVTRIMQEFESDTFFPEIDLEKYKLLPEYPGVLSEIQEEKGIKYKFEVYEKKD
# assay: Inhibition of DHFR from rat liver
# Format: biochemical
# recordedConditions: Table 22; read-out: rlDHFR IC50
Listing of recorded IC50 by entry.

See these solved cases before continuing.
Nc1nc2[nH]cc(CNc3ccc(Cl)cc3Cl)c2c(=O)[nH]1 [Compound 414] | > 15 µM
COc1cc(NCc2c[nH]c3nc(N)nc(O)c23)cc(OC)c1OC [Compound 411] | > 22 µM

[Q] // query IC50 value for entry Nc1nc(O)c2c(CNc3cccc(Cl)c3)c[nH]c2n1 [Compound 415]
[A] > 26 µM

[Q] What would you report for Nc1nc(O)c2c(CNc3cc(Cl)cc(Cl)c3)c[nH]c2n1 [Compound 413] ?
[A] > 63 µM

====

# assayedSystem: E-coli thymidylate synthase (ecTS) (Escherichia coli, UniProt P0A884)
# Sequence (P0A884 whole entry): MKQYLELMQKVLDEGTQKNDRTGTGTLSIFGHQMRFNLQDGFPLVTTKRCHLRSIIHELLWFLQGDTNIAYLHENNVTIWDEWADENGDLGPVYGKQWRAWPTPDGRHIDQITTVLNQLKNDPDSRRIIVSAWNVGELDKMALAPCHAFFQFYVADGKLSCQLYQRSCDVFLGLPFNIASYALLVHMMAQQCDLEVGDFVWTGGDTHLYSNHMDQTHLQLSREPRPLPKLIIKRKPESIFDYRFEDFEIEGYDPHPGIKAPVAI
# assay: Inhibition of E. coli thymidylate synthase
# Assay type: biochemical
# recordedConditions: Table 22; at the concentration given
# Experimental: All of the compounds were tested against human cells, L. casei, E. coli, and S. faecium.
Each entry below carries its recorded % in parentheses after the > value, ecTS.
# unit: % | format: bare number

Nc1nc(O)c2c(CNc3cccc(Cl)c3)c[nH]c2n1 [Compound 415] | 26
COc1cc(NCc2c[nH]c3nc(N)[nH]c(=O)c23)cc(OC)c1 [Compound 409] | 0
COc1ccc(NCc2c[nH]c3nc(N)[nH]c(=O)c23)c(OC)c1 [Compound 410] | 8
COc1ccc(OC)c(NCc2c[nH]c3nc(N)nc(O)c23)c1 [Compound 408] | 21

[Q] Reported % in parentheses after the > value, ecTS, compound COc1cc(NCc2c[nH]c3nc(N)nc(O)c23)cc(OC)c1OC [Compound 411] : ____
[A] 8

====

The entries below come with measured IC50 values attached.
# assayedSystem: Tg DHFR (Toxoplasma gondii)
# assay: biochemical
# Assay type: biochemical
# recordedConditions: Table 25; read-out: Inhibitor Concentrations (IC50) tgDHFR
# Method: The selectivity ratio is a measure of the selectivity of a compound for Pc DHFR or Tg DHFR and is expressed as the IC50 value of the DHFR from rate liver (RL) divided by the IC50 value of either the Pc DHFR or the Tg DHFR, depending on which organism the compounds are being tested against. For example, the selectivity ratio of a compound is calculated by the following formula: [formula]
Report the figure in µM without appending any unit label.

// solved cases for IC50 follow
Nc1nc(N)c2c(CNc3ccc(Oc4ccccc4)cc3)coc2n1 | 32.4
Nc1nc(N)c2c(CNc3ccc4ccccc4c3)coc2n1 | 38
CCOc1cc(Cc2cnc(N)nc2N)cc(OCC)c1-n1cccc1 [epiroprim, reference compound] | 0.48

# input for lookup
[Q] May I ask what IC50 has been recorded for Nc1nc(N)c2c(CNc3cccc4ccccc34)coc2n1 ?
[A] 37

====

# assayedSystem: UniProt P16184
# Format: biochemical
# recordedConditions: IC50 rlDHFR/IC50 pcDHFR
observedProperty: Selectivity ratio rl/pc

Reference set (3 entries):
Nc1nc(N)c2c(CNc3ccc4ccccc4c3)coc2n1 | 0.89
Nc1nc(N)c2c(COc3ccc4ccccc4c3)coc2n1 | 4.31
Nc1nc(N)c2c(CNc3cc(Cl)ccc3Cl)coc2n1 | 1.4

[Q] Please report the recorded Selectivity ratio rl/pc for CCOc1cc(Cc2cnc(N)nc2N)cc(OCC)c1-n1cccc1 [epiroprim, reference compound] .
[A] 12.8

====

# assayedSystem: L. casei DHFR (Lacticaseibacillus casei)
# Sequence (P00381 whole entry): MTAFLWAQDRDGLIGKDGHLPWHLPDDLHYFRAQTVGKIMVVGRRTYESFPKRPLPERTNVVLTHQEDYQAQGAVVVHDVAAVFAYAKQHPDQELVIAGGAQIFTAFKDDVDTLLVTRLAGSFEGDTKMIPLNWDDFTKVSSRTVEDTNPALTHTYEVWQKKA
# assay: Inhibition of Lactobacillus casei DHFR
# Format: biochemical
# recordedConditions: Table 17; read-out: L. casei DHFR IC50
observedProperty: IC50 (nM)
Dear colleague, please return just the value in nM, with no unit written.

[Q] Give the measured IC50 of Nc1nc(N)c2c(CCc3ccc(C(=O)N[C@@H](CCC(=O)O)C(=O)O)cc3)coc2n1 .
[A] 100

====

# assayedSystem: Tg DHFR (Toxoplasma gondii, UniProt Q07422)
# Sequence (Q07422 1-610): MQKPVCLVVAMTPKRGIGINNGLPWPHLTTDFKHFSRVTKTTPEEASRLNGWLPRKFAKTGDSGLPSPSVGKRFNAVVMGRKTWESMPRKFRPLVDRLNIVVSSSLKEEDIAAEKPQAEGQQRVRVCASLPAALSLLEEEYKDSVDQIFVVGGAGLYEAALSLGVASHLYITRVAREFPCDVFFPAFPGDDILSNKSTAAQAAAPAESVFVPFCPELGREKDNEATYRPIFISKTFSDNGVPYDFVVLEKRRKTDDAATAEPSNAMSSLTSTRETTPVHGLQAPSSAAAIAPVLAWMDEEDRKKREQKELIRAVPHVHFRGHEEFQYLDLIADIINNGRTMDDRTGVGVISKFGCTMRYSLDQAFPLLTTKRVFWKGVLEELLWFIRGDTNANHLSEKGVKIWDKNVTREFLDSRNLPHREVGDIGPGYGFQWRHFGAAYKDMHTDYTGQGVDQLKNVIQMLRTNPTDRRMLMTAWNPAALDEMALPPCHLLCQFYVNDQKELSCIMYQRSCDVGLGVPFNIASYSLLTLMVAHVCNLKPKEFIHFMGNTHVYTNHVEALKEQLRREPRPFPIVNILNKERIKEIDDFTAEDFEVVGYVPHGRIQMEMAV
# assay: biochemical
# Format: biochemical
# recordedConditions: Table 22; read-out: tgDHFR IC50
observedProperty: pIC50
The read-out pIC50 is expressed as -log10 of concentration in moles per litre.

Examples from the recorded data:
Nc1nc(O)c2c(CNc3cc(Cl)cc(Cl)c3)c[nH]c2n1 | 5.52
COc1ccc(NCc2c[nH]c3nc(N)[nH]c(=O)c23)c(OC)c1 | 5.15

[Q] Which pIC50 value belongs to Nc1nc2[nH]cc(CNc3ccc(Cl)cc3Cl)c2c(=O)[nH]1 ?
[A] 5.66

[Q] # iterate: COc1ccc(OC)c(NCc2c[nH]c3nc(N)nc(O)c23)c1
[A] 5.66

[Q] Query COc1cc(NCc2c[nH]c3nc(N)nc(O)c23)cc(OC)c1OC next
[A] 5.16

[Q] Let us now turn to COc1cc(NCc2c[nH]c3nc(N)[nH]c(=O)c23)cc(OC)c1
[A] 5.59

[Q] Can you handle Nc1nc(O)c2c(CNc3cccc(Cl)c3)c[nH]c2n1 next?
[A] 5.46

====

# assayedSystem: UniProt:P13100
# Sequence (P13100 whole entry): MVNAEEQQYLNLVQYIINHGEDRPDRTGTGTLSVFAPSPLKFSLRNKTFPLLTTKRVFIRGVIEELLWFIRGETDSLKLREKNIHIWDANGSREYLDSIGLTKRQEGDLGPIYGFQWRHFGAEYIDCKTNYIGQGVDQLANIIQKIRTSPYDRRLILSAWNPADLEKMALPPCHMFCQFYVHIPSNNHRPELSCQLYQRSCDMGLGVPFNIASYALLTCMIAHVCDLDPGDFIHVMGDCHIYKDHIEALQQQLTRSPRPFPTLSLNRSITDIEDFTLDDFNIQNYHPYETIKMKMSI
observedProperty: IC50
Please append the unit to your numeric answer.

[Q] Request the reported IC50 associated with Nc1nc2[nH]cc(CNc3ccc(C(=O)N[C@@H](CCC(=O)O)C(=O)O)cc3)c2c(=O)[nH]1
[A] 5.8 µM

====

# assayedSystem: Pc DHFR (Pneumocystis carinii)
# Sequence (P16184 whole entry): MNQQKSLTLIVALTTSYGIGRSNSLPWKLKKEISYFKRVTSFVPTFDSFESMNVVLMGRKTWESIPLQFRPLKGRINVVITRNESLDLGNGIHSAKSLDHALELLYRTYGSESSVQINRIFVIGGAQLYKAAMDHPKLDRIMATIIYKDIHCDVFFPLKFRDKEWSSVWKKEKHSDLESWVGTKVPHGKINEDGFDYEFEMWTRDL
# assay: biochemical
# recordedConditions: Table 22; read-out: pcDHFR IC50
observedProperty: IC50

Nc1nc(O)c2c(CNc3cc(Cl)cc(Cl)c3)c[nH]c2n1 | 66.2 µM
COc1cc(NCc2c[nH]c3nc(N)nc(O)c23)cc(OC)c1OC | > 22 µM
Nc1nc(O)c2c(CNc3cccc(Cl)c3)c[nH]c2n1 | > 26 µM
Nc1nc2[nH]cc(CNc3ccc(Cl)cc3Cl)c2c(=O)[nH]1 | > 15 µM
COc1ccc(OC)c(NCc2c[nH]c3nc(N)nc(O)c23)c1 | > 47 µM
COc1ccc(NCc2c[nH]c3nc(N)[nH]c(=O)c23)c(OC)c1 | > 16 µM

[Q] Name the recorded IC50 for COc1cc(NCc2c[nH]c3nc(N)[nH]c(=O)c23)cc(OC)c1 .
[A] > 20 µM
